- assay.comment: Biodistribution in PC-3 tumor-bearing NSG mice (Example 2)
- Type: in vivo
- measurement.context: male, NSG (NOD.Cg-Prkdc^scid Il2rg^tm1Wjl/SzJ), mouse, intestine, iv, total radioactivity, 120 MIN p.i.; read-out: Biodistribution INTESTINE, Mean
quantity.name: tissue uptake at 2 h (%ID/g)
Give bare numbers, in %ID/g.

Could you tell me which tissue uptake at 2 h is on file for CC(C)C[C@@H](CN1CCC[C@H]1C(N)=O)NC(=O)[C@H](Cc1c[nH]cn1)NC(=O)CNC(=O)[C@@H](NC(=O)[C@H](C)NC(=O)[C@H](Cc1c[nH]c2ccccc12)NC(=O)[C@H](CCC(N)=O)NC(=O)[C@@H](Cc1ccccc1)NC(=O)CN1CCC(NC(=O)CN2CCN(CC(=O)O)CCN(CC(=O)O)CCN(CC(=O)O)CC2)CC1)C(C)C [^68Ga-ProBOMB2, metal not drawn] ?
0.19

###

- assay.comment: Biodistribution in PC-3 tumor-bearing NRG mice (Example 1)
- Format: in vivo
- measurement.context: male, NRG (NOD.Cg-Rag1tm1Mom Il2rgtm1Wjl/SzJ), mouse, lung, iv, 1.84 MBq, total radioactivity; 60 min p.i.; read-out: Biodistribution Lung, Mean
quantity.name: tissue uptake at 1 h (%ID/g)
Give bare numbers, in %ID/g.

Could you tell me which tissue uptake at 1 h is on file for CC(C)C[C@@H](CN1CCC[C@H]1C(N)=O)NC(=O)[C@H](Cc1c[nH]cn1)NC(=O)CNC(=O)[C@@H](NC(=O)[C@H](C)NC(=O)[C@H](Cc1c[nH]c2ccccc12)NC(=O)[C@H](CCC(N)=O)NC(=O)[C@@H](Cc1ccccc1)NC(=O)COCC(=O)Nc1ccc(CNC(=O)CN2CCN(CC(=O)O)CCN(CC(=O)O)CCN(CC(=O)O)CC2)cc1)C(C)C [^68Ga-ProBOMB1, metal not drawn] ?
0.35

###

- assay.comment: Biodistribution in PC-3 tumor-bearing NSG mice (Example 2)
- Assay type: in vivo
- measurement.context: male, NSG (NOD.Cg-Prkdc^scid Il2rg^tm1Wjl/SzJ), mouse, whole blood, iv, total radioactivity, 60 MIN BLOCKED, co-injection of 100 μg of [D-Phe^6,Leu-NHEt^13,des-Met^14]Bombesin(6-14); read-out: Biodistribution BLOOD, Mean
quantity.name: tissue uptake at 1 h (%ID/g)
One number for each entry, in %ID/g.

Could you tell me which tissue uptake at 1 h is on file for CC(C)C[C@@H](CN1CCC[C@H]1C(N)=O)NC(=O)[C@H](Cc1c[nH]cn1)NC(=O)CNC(=O)[C@@H](NC(=O)[C@H](C)NC(=O)[C@H](Cc1c[nH]c2ccccc12)NC(=O)[C@H](CCC(N)=O)NC(=O)[C@@H](Cc1ccccc1)NC(=O)CN1CCC(NC(=O)CN2CCN(CC(=O)O)CCN(CC(=O)O)CCN(CC(=O)O)CC2)CC1)C(C)C [^68Ga-ProBOMB2, metal not drawn] ?
0.53

###

- assay.comment: Biodistribution in PC-3 tumor-bearing NRG mice (Example 1)
- Type: in vivo
- measurement.context: male, NRG (NOD.Cg-Rag1tm1Mom Il2rgtm1Wjl/SzJ), mouse, PC-3 tumor, iv, 1.84 MBq, total radioactivity; 30 min p.i.; read-out: Biodistribution PC-3 Tumor, Mean
- Method: The mice were sacrificed by CO2 inhalation at 30 min, 1 h, and 2 h p.i. Blood was collected by cardiac puncture. Organs/tissues were harvested, rinsed with PBS, blotted dry, and weighed. The activity in tissues was assayed by gamma counter and expressed as the percentage injected dose per gram of tissue (% ID/g).
quantity.name: tissue uptake at 0.5 h (%ID/g)
One number for each entry, in %ID/g.

Could you tell me which tissue uptake at 0.5 h is on file for CC(C)C[C@@H](CN1CCC[C@H]1C(N)=O)NC(=O)[C@H](Cc1c[nH]cn1)NC(=O)CNC(=O)[C@@H](NC(=O)[C@H](C)NC(=O)[C@H](Cc1c[nH]c2ccccc12)NC(=O)[C@H](CCC(N)=O)NC(=O)[C@@H](Cc1ccccc1)NC(=O)COCC(=O)Nc1ccc(CNC(=O)CN2CCN(CC(=O)O)CCN(CC(=O)O)CCN(CC(=O)O)CC2)cc1)C(C)C [^68Ga-ProBOMB1, metal not drawn] ?
4.62

These entries and their values trace back to patent US20210402016A1.
